# Test: Plasma pharmacokinetics of vincristine in mice
# Reported Conditions: mouse, in vivo, 1 mg/kg, Plasma concentration of Vincristine (ng/mL), Wild-type mice, 2 h
Assay Metric: concentration at 2 h (ng/mL)
Give bare numbers, in ng/mL.

Input line: Which concentration at 2 h is reported for this compound? CC[C@]1(O)C[C@H]2CN(CCc3c([nH]c4ccccc34)[C@@](C(=O)OC)(c3cc4c(cc3OC)N(C=O)[C@H]3[C@@](O)(C(=O)OC)[C@H](OC(C)=O)[C@]5(CC)C=CCN6CC[C@]43[C@@H]65)C2)C1
Output line: 112

---

# Test: Plasma pharmacokinetics of vincristine in mice
# Reported Conditions: mouse, in vivo, 1 mg/kg, Plasma concentration of Vincristine (ng/mL), OATP1A/1B(-/-) mice, 1 h
Assay Metric: concentration at 1 h (ng/mL)
One number for each entry, in ng/mL.

Input line: What value of concentration at 1 h has been reported for the following compound? CC[C@]1(O)C[C@H]2CN(CCc3c([nH]c4ccccc34)[C@@](C(=O)OC)(c3cc4c(cc3OC)N(C=O)[C@H]3[C@@](O)(C(=O)OC)[C@H](OC(C)=O)[C@]5(CC)C=CCN6CC[C@]43[C@@H]65)C2)C1
Output line: 195

---

# Test: in vivo
# Reported Conditions: male, mouse, in vivo, ip, 1 mg/kg, AUC0-4h
Assay Metric: AUC(0-t) (ng·h/mL)
Answers are plain numbers, in ng·h/mL.

Input line: Please give the measured AUC(0-t) for this compound: CC[C@]1(O)C[C@H]2CN(CCc3c([nH]c4ccccc34)[C@@](C(=O)OC)(c3cc4c(cc3OC)N(C=O)[C@H]3[C@@](O)(C(=O)OC)[C@H](OC(C)=O)[C@]5(CC)C=CCN6CC[C@]43[C@@H]65)C2)C1
Output line: 1060

---

# Test: Plasma pharmacokinetics of nilotinib in mice
# Type: in vivo, mouse
# Reported Conditions: DBA/1LacJ, mouse, plasma, oral, 100 mg/kg, Plasma concentration of nilotinib, OATP1B2(-/-) mice
Assay Metric: concentration at […] (ng/mL)
Numbers only, in ng/mL.

Input line: If you can, please state the reported concentration at […] value of Cc1cn(-c2cc(NC(=O)c3ccc(C)c(Nc4nccc(-c5cccnc5)n4)c3)cc(C(F)(F)F)c2)cn1 .
Output line: 25800

---

# Test: in vivo
# Reported Conditions: DBA/1LacJ, mouse, in vivo, ip, 1 mg/kg, Plasma concentration of vincristine
# Method: were collected at the final time point. […] specimens were stored at -80°C until further processing. […] stainless steel bead (Qiagen) and processed for 4 min at 40 Hz. […] Pharmacokinetic parameters were calculated by non -compartmental analysis using Phoenix WinNonlin version 8.0 (Certara). Peak plasma concentration (C max) was determined by visual inspection of the data from the concentration-time curves. […] quantification was 5 ng/mL. […]
Assay Metric: concentration at 0.25 h

Input line: // query concentration at 0.25 h value for entry CC[C@]1(O)C[C@H]2CN(CCc3c([nH]c4ccccc34)[C@@](C(=O)OC)(c3cc4c(cc3OC)N(C=O)[C@H]3[C@@](O)(C(=O)OC)[C@H](OC(C)=O)[C@]5(CC)C=CCN6CC[C@]43[C@@H]65)C2)C1
Output line: 707 ng/mL

---

# Test: Plasma pharmacokinetics of vincristine in mice
# Reported Conditions: mouse, in vivo, 1 mg/kg, Plasma concentration of vincristine, Wild-type + Vehicle; vincristine 1 mg/kg; 1 h
Assay Metric: concentration at 1 h (ng/mL)
Answers are plain numbers, in ng/mL.

Input line: Recorded concentration at 1 h for CC[C@]1(O)C[C@H]2CN(CCc3c([nH]c4ccccc34)[C@@](C(=O)OC)(c3cc4c(cc3OC)N(C=O)[C@H]3[C@@](O)(C(=O)OC)[C@H](OC(C)=O)[C@]5(CC)C=CCN6CC[C@]43[C@@H]65)C2)C1 [Vincristine, vincristine] , please?
Output line: 116

---

# Test: Plasma pharmacokinetics of vincristine in mice
# Reported Conditions: mouse, in vivo, Plasma concentration of vincristine, Wild-type + Nilotinib (100 mg/kg pretreatment); vincristine 1 mg/kg; 0.5 h
Assay Metric: concentration at 0.5 h (ng/mL)
One number for each entry, in ng/mL.

Input line: Item under review: CC[C@]1(O)C[C@H]2CN(CCc3c([nH]c4ccccc34)[C@@](C(=O)OC)(c3cc4c(cc3OC)N(C=O)[C@H]3[C@@](O)(C(=O)OC)[C@H](OC(C)=O)[C@]5(CC)C=CCN6CC[C@]43[C@@H]65)C2)C1 . Reported concentration at 0.5 h?
Output line: 124

---

# Test: in vivo
# Reported Conditions: male, DBA/1LacJ, mouse, in vivo, ip, 1 mg/kg, AUC0-4h
# Description: were collected at the final time point. […] specimens were stored at -80°C until further processing. […] stainless steel bead (Qiagen) and processed for 4 min at 40 Hz. […] Pharmacokinetic parameters were calculated by non -compartmental analysis using Phoenix WinNonlin version 8.0 (Certara). Peak plasma concentration (C max) was determined by visual inspection of the data from the concentration-time curves. […] quantification was 5 ng/mL. […]
Assay Metric: AUC(0-t) (ng·h/mL)
Numbers only, in ng·h/mL.

Input line: I am curious: what AUC(0-t) value has been reported for CC[C@]1(O)C[C@H]2CN(CCc3c([nH]c4ccccc34)[C@@](C(=O)OC)(c3cc4c(cc3OC)N(C=O)[C@H]3[C@@](O)(C(=O)OC)[C@H](OC(C)=O)[C@]5(CC)C=CCN6CC[C@]43[C@@H]65)C2)C1 ?
Output line: 1290

---

# Test: in vivo
# Reported Conditions: male, mouse, in vivo, ip, 1 mg/kg, Cmax
Assay Metric: Cmax (ng/mL)
Answers are plain numbers, in ng/mL.

Input line: Please look up its Cmax: CC[C@]1(O)C[C@H]2CN(CCc3c([nH]c4ccccc34)[C@@](C(=O)OC)(c3cc4c(cc3OC)N(C=O)[C@H]3[C@@](O)(C(=O)OC)[C@H](OC(C)=O)[C@]5(CC)C=CCN6CC[C@]43[C@@H]65)C2)C1
Output line: 1190

---

# Test: in vivo
# Reported Conditions: DBA/1LacJ, mouse, in vivo, ip, 1 mg/kg, Plasma concentration of vincristine
Assay Metric: concentration at 4 h (ng/mL)
Answers are plain numbers, in ng/mL.

Input line: So what's the measured concentration at 4 h for this one? CC[C@]1(O)C[C@H]2CN(CCc3c([nH]c4ccccc34)[C@@](C(=O)OC)(c3cc4c(cc3OC)N(C=O)[C@H]3[C@@](O)(C(=O)OC)[C@H](OC(C)=O)[C@]5(CC)C=CCN6CC[C@]43[C@@H]65)C2)C1 [Vincristine, vincristine]
Output line: 90.9

---

# Test: in vivo
# Reported Conditions: mouse, in vivo, ip, 1 mg/kg, Plasma concentration of vincristine
# Procedure: were collected at the final time point. […] specimens were stored at -80°C until further processing. […] stainless steel bead (Qiagen) and processed for 4 min at 40 Hz. […] Pharmacokinetic parameters were calculated by non -compartmental analysis using Phoenix WinNonlin version 8.0 (Certara). Peak plasma concentration (C max) was determined by visual inspection of the data from the concentration-time curves. […] quantification was 5 ng/mL. […]
Assay Metric: concentration at 0.5 h
Answer shape: numeric part, then the unit.

Input line: Item CC[C@]1(O)C[C@H]2CN(CCc3c([nH]c4ccccc34)[C@@](C(=O)OC)(c3cc4c(cc3OC)N(C=O)[C@H]3[C@@](O)(C(=O)OC)[C@H](OC(C)=O)[C@]5(CC)C=CCN6CC[C@]43[C@@H]65)C2)C1 [Vincristine, vincristine] has what recorded concentration at 0.5 h?
Output line: 376 ng/mL

---

# Test: Plasma pharmacokinetics of vincristine in mice
# Reported Conditions: mouse, in vivo, Plasma concentration of vincristine, Wild-type + Nilotinib (100 mg/kg pretreatment); vincristine 1 mg/kg; 1 h
Assay Metric: concentration at 1 h (ng/mL)
Numbers only, in ng/mL.

Input line: Requested read-out: concentration at 1 h. Entry: CC[C@]1(O)C[C@H]2CN(CCc3c([nH]c4ccccc34)[C@@](C(=O)OC)(c3cc4c(cc3OC)N(C=O)[C@H]3[C@@](O)(C(=O)OC)[C@H](OC(C)=O)[C@]5(CC)C=CCN6CC[C@]43[C@@H]65)C2)C1 [Vincristine, vincristine]
Output line: 104

---

# Test: in vivo
# Reported Conditions: mouse, in vivo, ip, 1 mg/kg, Plasma concentration of vincristine
Assay Metric: concentration at 1 h (ng/mL)
Give bare numbers, in ng/mL.

Input line: Which concentration at 1 h is listed for CC[C@]1(O)C[C@H]2CN(CCc3c([nH]c4ccccc34)[C@@](C(=O)OC)(c3cc4c(cc3OC)N(C=O)[C@H]3[C@@](O)(C(=O)OC)[C@H](OC(C)=O)[C@]5(CC)C=CCN6CC[C@]43[C@@H]65)C2)C1 [Vincristine, vincristine] ?
Output line: 273
